Cited source: patent US20240424112A1

study-target: BRD4 long isoform (Homo sapiens, UniProt O60885)
Construct: endogenous in cells; host or cells: MDA-MB-468
test-method-notes: BRD4 degradation assay (Western blot, MDA-MB-468 cells), long isoform
Assay type: cell-based
run-conditions: 48 h, 1 μM, MDA-MB-468, n = 2
endpoint: % Mean Degradation of BRD4 (%)

Would you please look over these solved cases?
Cc1sc2c(c1C)C(c1ccc(Cl)cc1)=N[C@@H](CC(=O)NCCOCCOCCNC(=O)[C@@]1(C)CCCC[C@H]1C(=O)N1CCc3c(Cl)ccc(OCc4nnn(C)c4C)c3[C@H]1CN1CC3(CC3)CC1=O)c1nnc(C)n1-2 [Comparative Example 3, reference compound]
30
Cc1sc2c(c1C)C(c1ccc(Cl)cc1)=N[C@@H](CC(=O)NCC(=O)NCCOCc1c(COc3ccc(Cl)c4c3[C@@H](CN3CC5(CC5)CC3=O)N(C(=O)[C@@H]3CCCC[C@]3(C)C(=O)O)CC4)nnn1C)c1nnc(C)n1-2 [Example 3]
67
Cc1sc2c(c1C)C(c1ccc(Cl)cc1)=N[C@@H](CC(=O)NCCOCCC(=O)NCCOCc1c(COc3ccc(Cl)c4c3[C@@H](CN3CC5(CC5)CC3=O)N(C(=O)[C@@H]3CCCC[C@]3(C)C(=O)O)CC4)nnn1C)c1nnc(C)n1-2 [Example 5]
78

A. Cc1sc2c(c1C)C(c1ccc(Cl)cc1)=N[C@@H](CC(=O)NCCC(=O)NCCOCc1c(COc3ccc(Cl)c4c3[C@@H](CN3CC5(CC5)CC3=O)N(C(=O)[C@@H]3CCCC[C@]3(C)C(=O)O)CC4)nnn1C)c1nnc(C)n1-2 [Example 4]
B. CNC(=O)[C@@]1(C)CCCC[C@H]1C(=O)N1CCc2c(Cl)ccc(OCc3nnn(CCNC(=O)CNC(=O)C[C@@H]4N=C(c5ccc(Cl)cc5)c5c(sc(C)c5C)-n5c(C)nnc54)c3C)c2[C@H]1CN1CC2(CC2)CC1=O [Example 2]
Which item exceeds the other in % Mean Degradation of BRD4, A or B ? Answer format: the label of the selected item.
B
(B: 93%, A: 56%)

###

study-target: BRD4 long isoform (Homo sapiens)
Construct: endogenous in cells; host or cells: MDA-MB-468
test-method-notes: BRD4 degradation assay (Western blot, MDA-MB-468 cells), long isoform
Type: cell-based
run-conditions: 48 h, 1 μM, MDA-MB-468, n = 2
endpoint: % Mean Degradation of BRD4 (%)

A. Cc1sc2c(c1C)C(c1ccc(Cl)cc1)=N[C@@H](CC(=O)NCCOCCNC(=O)[C@@]1(C)CCCC[C@H]1C(=O)N1CCc3c(Cl)ccc(OCc4nnn(C)c4C)c3[C@H]1CN1CC3(CC3)CC1=O)c1nnc(C)n1-2 [Comparative Example 2, reference compound]
B. Cc1sc2c(c1C)C(c1ccc(Cl)cc1)=N[C@@H](CC(=O)NCC(=O)NCCOCC(=O)N1CC[C@H](Oc3ccc(Cl)c4c3[C@@H](CN3CC5(CC5)CC3=O)N(C(=O)[C@@H]3CCCC[C@]3(C)C(=O)O)CC4)C1)c1nnc(C)n1-2 [Example 6]
C. Cc1sc2c(c1C)C(c1ccc(Cl)cc1)=N[C@@H](CC(=O)NCC(=O)NCCn1nnc(COc3ccc(Cl)c4c3[C@@H](CN3CC5(CC5)CC3=O)N(C(=O)[C@@H]3CCCC[C@]3(C)C(=O)O)CC4)c1C)c1nnc(C)n1-2 [Example 1]
D. Cc1sc2c(c1C)C(c1ccc(Cl)cc1)=N[C@@H](CC(=O)NCC(=O)NCCNC(=O)[C@@]1(C)CCCC[C@H]1C(=O)N1CCc3c(Cl)ccc(OCc4nnn(C)c4C)c3[C@H]1CN1CC3(CC3)CC1=O)c1nnc(C)n1-2 [Comparative Example 1, reference compound]
Which order do the above compounds take when sorted by rising % Mean Degradation of BRD4? Smallest first. Submit the labels in the order that the ranking request calls for.
A, D, B, C
(A: −61%, D: −27%, B: 43%, C: 99%)
